# Assay remarks: Cmax in CD1 mouse at 20 mg/kg, po measured up to 24 hrs measured by LC/MS-MS analysis
# Format: ADME, organism-based
# Parameters: route oral, dose 20 mg/kg, time <=24
# Measurement conditions: in vivo
This section presents molecules with their documented Cmax values.

Mol: Cn1cc(-c2cnc3ccc(NC(=O)Nc4cccc(C(F)(F)F)c4F)cc3n2)cn1
Cmax (ng/mL): 700
//
Mol: O=C(Nc1ccc(Br)cc1)Nc1ccc2nc(-c3ccco3)c(-c3ccco3)nc2c1
Cmax (ng/mL): 300

---

# Assay remarks: Oral bioavailability in CD1 mouse at 20 mg/kg measured up to 24 hrs measured by LC/MS-MS analysis
# Type: ADME, organism-based
# Measurement conditions: in vivo
This section presents compounds with their documented bioavailability values.

Mol: Cn1cc(-c2cnc3ccc(NC(=O)Nc4cccc(C(F)(F)F)c4F)cc3n2)cn1
bioavailability / %: 17.6
//
Mol: O=C(Nc1ccc(Br)cc1)Nc1ccc2nc(-c3ccco3)c(-c3ccco3)nc2c1
bioavailability / %: 3.1

---

# Assay remarks: AUC (0 to infinity) in CD1 mouse at 10 mg/kg, iv measured up to 24 hrs measured by LC/MS-MS analysis
# Assay type: ADME, organism-based
# Set-up: route intravenous, dose 10 mg/kg, time <=24
# Measurement conditions: in vivo
Property label: AUC(0-inf) (ng·h/mL)

Mol: Cn1cc(-c2cnc3ccc(NC(=O)Nc4cccc(C(F)(F)F)c4F)cc3n2)cn1
Property label: AUC(0-inf)
Reported result: 22800

---

This section presents compounds with their documented MRT inf values.
# Assay remarks: MRT (0 to infinity) in CD1 mouse at 20 mg/kg, po measured up to 24 hrs measured by LC/MS-MS analysis
# Assay type: ADME, organism-based
# Measurement conditions: in vivo
Property label: MRT inf (h)

Mol: O=C(Nc1ccc(Br)cc1)Nc1ccc2nc(-c3ccco3)c(-c3ccco3)nc2c1
Reported result: 5.2
//
Mol: Cn1cc(-c2cnc3ccc(NC(=O)Nc4cccc(C(F)(F)F)c4F)cc3n2)cn1
Reported result: 6.3

---

# Assay remarks: Cmax in CD1 mouse at 10 mg/kg, iv measured up to 24 hrs measured by LC/MS-MS analysis
# Type: ADME, organism-based
# Set-up: route intravenous, dose 10 mg/kg, time <=24
# Measurement conditions: in vivo

Mol: Cn1cc(-c2cnc3ccc(NC(=O)Nc4cccc(C(F)(F)F)c4F)cc3n2)cn1
Cmax [ng/mL]: 5980

---

# Assay remarks: Volume of distribution at steady state in CD1 mouse at 10 mg/kg, iv measured up to 24 hrs measured by LC/MS-MS analysis
# Format: ADME, organism-based
# Measurement conditions: in vivo, read-out: Vdss

Mol: Cn1cc(-c2cnc3ccc(NC(=O)Nc4cccc(C(F)(F)F)c4F)cc3n2)cn1
Vd: 2 L/kg

---

# Assay remarks: Half life in CD1 mouse at 10 mg/kg, iv measured up to 24 hrs measured by LC/MS-MS analysis
# Type: ADME, organism-based
# Measurement conditions: in vivo

Mol: Cn1cc(-c2cnc3ccc(NC(=O)Nc4cccc(C(F)(F)F)c4F)cc3n2)cn1
half-life / h: 2.7

---

# Assay remarks: Tmax in CD1 mouse at 20 mg/kg, po measured up to 24 hrs measured by LC/MS-MS analysis
# Format: ADME, organism-based
# Measurement conditions: in vivo
Property label: Tmax (h)

Mol: O=C(Nc1ccc(Br)cc1)Nc1ccc2nc(-c3ccco3)c(-c3ccco3)nc2c1
Reported result: 2.5
//
Mol: Cn1cc(-c2cnc3ccc(NC(=O)Nc4cccc(C(F)(F)F)c4F)cc3n2)cn1
Reported result: 6
